Recorded IC50 for molecules tested on Bovine lysyl oxidase (LOX) (Bos taurus), drawn from a number of studies.
endpoint: IC50

>>> result("Cc1nn(C/C(F)=C/CN)c(C(C)O)c1Cc1ccc(S(=O)(=O)N(C)C)c(Cl)c1 (centres unmarked)")
"> 10 µM"
>>> result("NCc1cccc(O[C@@H]2C[C@H](c3ccccc3)CN(C(=O)N3CCOCC3)C2)c1 (racemic)")
"> 30 µM"
>>> result("Cc1c(-c2cccc(S(=O)(=O)N(C)C)c2)c2cc(C(=O)NCCCCCNC(=O)CCCC[C@@H]3SC[C@@H]4NC(=O)N[C@@H]43)ccc2n1C/C(F)=C/CN")
"> 0.3 µM"
>>> result("CS(=O)(=O)N1CCN(C(=O)[C@H]2C[C@@H](c3ccccc3)CN(S(=O)(=O)c3cccc(CN)n3)C2)CC1 (racemic)")
"> 30 µM"
>>> result("CS(=O)(=O)[C@@H]1C[C@H](Oc2ccc(CN)cc2)CN(c2ccccc2)C1 (racemic)")
"1 to 30 µM"
>>> result("NCc1cccc(O[C@@H]2C[C@H](c3ccccc3)CN(C(=O)N3CCS(=O)(=O)CC3)C2)c1 (racemic)")
"> 30 µM"
>>> result("NCc1cccc(S(=O)(=O)N2C[C@@H](C(=O)N3CCS(=O)(=O)CC3)C[C@@H](C3CCCCC3)C2)c1 (racemic)")
"> 30 µM"
>>> result("CN(C)C(=O)N1C[C@@H](C2CCCCC2)C[C@@H](S(=O)(=O)c2cccc(CN)c2)C1 (racemic)")
"> 30 µM"
>>> result("NCc1ccnc(S(=O)(=O)C[C@@H]2C[C@H](c3ccc(F)cc3)CN2S(=O)(=O)N2CCOCC2)c1 (racemic)")
"1 to 30 µM"
>>> result("CN(C)C(=O)[C@@H]1C[C@H](S(=O)(=O)c2cccc(CN)c2)CN(C2CCCCC2)C1 (racemic)")
"> 30 µM"
>>> result("COCc1nn(C/C(F)=C/CN)c(C)c1Cc1ccc(S(=O)(=O)N(C)C)c(Cl)c1")
"< 10 µM"
>>> result("C=C=C(CN)c1ccc(OC)cc1")
"0.01 µM"
>>> result("NCc1cccc(OC[C@@H]2C[C@H](c3ccc(F)cc3)CN2S(=O)(=O)N2CCS(=O)(=O)CC2)c1 (racemic)")
"1 to 30 µM"
>>> result("Cc1c(Cc2ccc(S(=O)(=O)N(C)C)c(Cl)c2)c(Cl)nn1C/C(F)=C/CN")
"< 10 µM"
